# EXPERIMENT: protein stability index of a GFP-peptide fusion (yeast GPS) (PSI 1-4); higher = more stable; sorted into four equal gates, so the index is relative within each strain
# DETAILS: ubr1∆
MEASURED ATTRIBUTE: protein stability index
Please respond with just the number, no unit label.

In [3]: df
Out[3]:
             sequence_string  measurement
0  LRGSLLSRKPSDNKKRS [RPC82]         3.01
1   HIGHSALKGPVRDKLDE [DPB4]          3.2
2  ISRERDLFTHLWNQWLK [SRP68]         2.93
3  KVDINADSAVNRQTLMF [PRP28]         3.17
4  CNEEQTLEAKIGGLLSK [RPO31]         2.91

From here, focus on the item given below.
Task: Given VTDSSLLKLLTRLVQLR [GRR1] , state its recorded protein stability index.
Output: 1.84

----------
# EXPERIMENT: protein stability index of a GFP-peptide fusion (yeast GPS) (PSI 1-4); higher = more stable; sorted into four equal gates, so the index is relative within each strain
# DETAILS: ubr1∆
sequences and their reported protein stability index
Please reply with the number alone, leaving off any unit.

Answered cases to consult:
>>> print(df.to_string())
             sequence_string  measurement
0   LNISPFTFGLTVVQVYD [RPP0]          1.2
1   PSPKKVAIDQDKITLHD [SIR4]         2.88
2  YGYPSYSTIRQLVYKRG [RPL7A]         1.41
3   LVELMFIRSTNSWFDVT [FAS1]         1.51
4  APLAKVVFRDPYKYRLR [RPL2A]         3.13
5   SAPPPALPHVEINQVSL [RGR1]         2.33
6   AQAQAQAQAQVYAQQST [PGD1]         3.01
7   NNHNDSNRLHPPDIHPN [GRR1]         2.77

Task: # query: protein stability index of entry LRKIQALRDVKNNNNAN [GAL11]
Output: 3.11

Task: Which protein stability index value belongs to QWFEAHYGQTLGKKKNV [RPS8A] ?
Output: 2.65

Task: // query protein stability index value for entry RKLFPNWIKPSDSEIPP [PRP8]
Output: 2.97

Task: Fill in the blank: the reported protein stability index of VEILFEAGASAELDDCR [RPO21] is ____.
Output: 3.49

Task: Given the sequence VNVEKFNVEYFAKEKLT [RPL6A] , what is its reported protein stability index?
Output: 2.37

Task: What does the record list as protein stability index for AYHQKYVDEQSKNELKK [RPS16A] ?
Output: 2.94

Task: Look up protein stability index for this sequence: MKYVRETSGVTTALLKD [MED8]
Output: 2.21

Task: Form field: reported protein stability index of REKVRKLSQYVQEMALG [FAS2]
Output: 3.24

Task: Any idea what protein stability index was measured for VERGRVGACTDEEMTIS [RRP43] ?
Output: 3.23

Task: Recorded protein stability index of SQLLLERLMISSDAFEV [RET1] , please.
Output: 1.86

Task: // lookup protein stability index for LKKIRAHRGIRHFWGLR [RPS18A]
Output: 2.62

Task: Looking for the measured protein stability index of GEGPFTVKFKHMDYDGN [YMR129W/POM152] , can you help?
Output: 2.78

Task: State the recorded protein stability index for this entry: CIQVNCLNCEKSKLFEW [SNM1]
Output: 3.16

Task: I would be grateful if you could share the reported protein stability index for PNHNSPVVINLDAKNKV [RPO31] .
Output: 3.03

Task: Reported protein stability index, sequence QLVLRGLLSQAIGCIER [YJR042W/NUP85] : ____
Output: 2.3

Task: Requested field: protein stability index. Item: LRNVFLGKCSRITDASL [GRR1]
Output: 2.82

Task: If you can, please state the reported protein stability index value of VPSTTNVNMTVNTMGTG [MED6] .
Output: 2.61

Task: Reported protein stability index, sequence TYASVTGLFTLERTDLK [RPN7] : ____
Output: 2.62

Task: // returns reported protein stability index for input RYFFWLQEKNSGNLPLN [RPN13]
Output: 2.87

Task: GET /values?readout=protein stability index&item= YISKIGEKIDSNKPIFL [SWI1]
Output: 3.19

Task: For the sequence shown here, GNAVTVTEDGTVVTVVS [RPL22A] , give the reported protein stability index.
Output: 1.84

Task: Bench note: what protein stability index did SKIIVFPRNGKAPEAEQ [RPL13A] show?
Output: 2.98
